# targetSystem: ATP-dependent translocase ABCB1 (MDR1) (Homo sapiens, UniProt P08183)
# Sequence (P08183 whole entry): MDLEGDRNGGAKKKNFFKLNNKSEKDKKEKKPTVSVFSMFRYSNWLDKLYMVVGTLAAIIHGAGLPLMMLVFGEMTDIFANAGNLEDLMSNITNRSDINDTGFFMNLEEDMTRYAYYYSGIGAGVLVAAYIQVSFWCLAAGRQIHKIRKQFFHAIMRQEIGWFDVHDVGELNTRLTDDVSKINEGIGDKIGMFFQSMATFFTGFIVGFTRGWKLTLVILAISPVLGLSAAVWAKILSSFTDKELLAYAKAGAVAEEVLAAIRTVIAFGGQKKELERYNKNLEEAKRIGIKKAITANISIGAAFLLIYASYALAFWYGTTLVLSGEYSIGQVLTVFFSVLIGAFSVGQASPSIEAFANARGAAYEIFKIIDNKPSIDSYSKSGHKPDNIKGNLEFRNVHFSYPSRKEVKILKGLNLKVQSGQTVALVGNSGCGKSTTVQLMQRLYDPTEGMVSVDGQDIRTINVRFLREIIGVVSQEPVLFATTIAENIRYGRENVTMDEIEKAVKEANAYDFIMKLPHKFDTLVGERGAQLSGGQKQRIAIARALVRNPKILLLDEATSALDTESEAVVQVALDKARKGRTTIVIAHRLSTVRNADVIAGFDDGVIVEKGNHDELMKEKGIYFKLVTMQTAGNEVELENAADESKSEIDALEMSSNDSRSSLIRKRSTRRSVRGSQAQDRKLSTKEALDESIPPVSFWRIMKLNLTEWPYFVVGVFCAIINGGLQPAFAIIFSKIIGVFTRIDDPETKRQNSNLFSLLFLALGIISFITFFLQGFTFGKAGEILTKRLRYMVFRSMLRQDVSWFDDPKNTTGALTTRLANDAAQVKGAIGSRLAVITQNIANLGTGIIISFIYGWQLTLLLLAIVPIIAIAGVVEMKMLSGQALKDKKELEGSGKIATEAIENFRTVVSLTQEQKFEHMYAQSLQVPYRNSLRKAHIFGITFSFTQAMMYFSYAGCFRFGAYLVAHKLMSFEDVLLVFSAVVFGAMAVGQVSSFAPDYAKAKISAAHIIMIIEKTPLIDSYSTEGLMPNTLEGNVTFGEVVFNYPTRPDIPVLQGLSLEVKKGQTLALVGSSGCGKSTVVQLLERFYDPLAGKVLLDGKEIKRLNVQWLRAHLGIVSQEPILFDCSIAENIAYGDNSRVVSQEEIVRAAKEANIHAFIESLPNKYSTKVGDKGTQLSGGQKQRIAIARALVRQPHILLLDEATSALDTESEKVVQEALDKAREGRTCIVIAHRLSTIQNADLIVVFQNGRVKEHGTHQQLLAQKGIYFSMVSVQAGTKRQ
# test: in vitro
# reportedConditions: dog, MDCK-MDR1, Ratio_Papp
# Description: Ratio of apparent permeability from basolateral to apical side over apical to basolateral side determined in MDR1-MDCKII cells
Starred links: 1 amine or outer side, 2 acyl side, 3 side chain; linkers in the order of their positions; H or OH if unused. Positions of bridges follow the written chain, without caps; N, C: chain ends. Non-standard residues stand in square brackets, D forms with d. Residues, ends and D or L forms follow the SMILES beside them. Chains are numbered I, II in the order given. Actinocin(9to1) = Cc1c2oc3c(C)ccc(C(=O)[*:1])c3nc-2c(C(=O)[*:2])c(N)c1=O; NMeV = CN[C@H](C(=O)O)C(C)C; Sar = CNCC(=O)O
# binning rule on efflux ratio: low bracket: < 1; middle bracket: ≥ 1 and < 9; high bracket: ≥ 9

Input: Returns: class label. Input: COC(=O)[C@H]1[C@H]2C[C@@H]3c4[nH]c5cc(OC)ccc5c4CCN3C[C@H]2C[C@@H](OC(=O)c2cc(OC)c(OC)c(OC)c2)[C@@H]1OC
Output: middle bracket

Input: Returns: class label. Input: CC(C)(C)NC(=O)[C@@H]1CN(Cc2cccnc2)CCN1C[C@@H](O)C[C@@H](Cc1ccccc1)C(=O)N[C@H]1c2ccccc2C[C@H]1O.O
Output: high bracket

Input: Returns: class label. Input: C[C@@H]1C[C@H]2[C@@H]3CCC4=CC(=O)C=C[C@]4(C)[C@@]3(F)[C@@H](O)C[C@]2(C)[C@@]1(O)C(=O)CO
Output: high bracket

Input: Returns: class label. Input: CN(C)CCC(c1ccc(Cl)cc1)c1ccccn1 (racemic)
Output: middle bracket

Input: Returns: class label. Input: COc1ccc([C@@H]2Sc3ccccc3N(CCN(C)C)C(=O)[C@@H]2OC(C)=O)cc1
Output: middle bracket

Input: Returns: class label. Input: CCC1=C[C@@H]2CN(C1)Cc1c([nH]c3ccccc13)[C@@](C(=O)OC)(c1cc3c(cc1OC)N(C)[C@H]1[C@@](O)(C(=O)OC)[C@H](OC(C)=O)[C@]4(CC)C=CCN5CC[C@]31[C@@H]54)C2
Output: high bracket

Input: Returns: class label. Input: COC(=O)C1=C(C)NC(C)=C(C(=O)OCCN(C)Cc2ccccc2)C1c1cccc([N+](=O)[O-])c1 (centres undefined)
Output: middle bracket

Input: Returns: class label. Input: CCC(C)n1ncn(-c2ccc(N3CCN(c4ccc(OCC5COC(Cn6cncn6)(c6ccc(Cl)cc6Cl)O5)cc4)CC3)cc2)c1=O (centres undefined)
Output: low bracket

Input: Returns: class label. Input: COc1cccc2c1C(=O)c1c(O)c3c(c(O)c1C2=O)C[C@@](O)(C(=O)CO)C[C@@H]3O[C@H]1C[C@H](N)[C@H](O)[C@H](C)O1
Output: low bracket

Input: Returns: class label. Input: CNC(=C[N+](=O)[O-])NCCSCc1ccc(CN(C)C)o1
Output: middle bracket

Input: Returns: class label. Input: CC[C@]1(O)C[C@@H]2CN(CCc3c([nH]c4ccccc34)[C@@](C(=O)OC)(c3cc4c(cc3OC)N(C)[C@H]3[C@@](O)(C(=O)OC)[C@H](OC(C)=O)[C@]5(CC)C=CCN6CC[C@]43[C@@H]65)C2)C1
Output: high bracket

Input: Returns: class label. Input: CN1CCC[C@@H]1Cc1c[nH]c2ccc(CCS(=O)(=O)c3ccccc3)cc12
Output: high bracket

Input: Returns: class label. Input: CN(C)CCCN1c2ccccc2Sc2ccc(Cl)cc21
Output: middle bracket

Input: Returns: class label. Input: COc1cc2nc(N3CCN(C(=O)c4ccco4)CC3)nc(N)c2cc1OC
Output: middle bracket

Input: Returns: class label. Input: CC[C@H]1C(=O)Nc2ccc(F)cc2N1C(=O)OC(C)C
Output: low bracket

Input: Returns: class label. Input: CC(C)NCC(O)COc1cccc2ccccc12 (centres undefined)
Output: middle bracket

Input: Returns: class label. Input: Cc1c2oc3c(C)ccc(C(=O)N[C@@H]4C(=O)N[C@H](C(C)C)C(=O)N5CCC[C@H]5C(=O)N(C)CC(=O)N(C)[C@@H](C(C)C)C(=O)O[C@@H]4C)c3nc-2c(C(=O)N[C@@H]2C(=O)N[C@H](C(C)C)C(=O)N3CCC[C@H]3C(=O)N(C)CC(=O)N(C)[C@@H](C(C)C)C(=O)O[C@@H]2C)c(N)c1=O [DACTINOMYCIN] (I: T[dV]P[Sar][NMeV] / II: T[dV]P[Sar][NMeV]; ester I:1-I:C, II:1-II:C; linker I:N-II:N via Actinocin(9to1))
Output: high bracket

Input: Returns: class label. Input: COc1cccc2c1C(=O)c1c(O)c3c(c(O)c1C2=O)C[C@@](O)(C(C)=O)C[C@@H]3O[C@H]1C[C@H](N)[C@H](O)[C@H](C)O1
Output: high bracket

Taken from ChEMBL document CHEMBL1908284.
